test: Elimination half life in human; conditions: in vivo
Listed next: entries and their corresponding half-life.

# COMPOUND, half-life
measured = [
    ("CC(C)(C)OC[C@@H]1C(=O)NCCN1C(=O)C[C@H](N)Cc1cc(F)c(F)cc1F [EVOGLIPTIN]", "32.5 to 39.8 h"),
    ("N#C[C@@H]1C[C@@H]2C[C@@H]2N1C(=O)[C@@H](N)C12CC3CC(CC(C3)C1)C2", "2 to 4 h"),
    ("CS(=O)(=O)n1cc2c(n1)CN([C@H]1CO[C@H](c3cc(F)ccc3F)[C@@H](N)C1)C2 [OMARIGLIPTIN]", "11 to 22 h"),
]

// provenance: ChEMBL document CHEMBL4229387
